# viability, T/C annotations
Test system: 439559-082-T-J2-PDC spheroids viability
protocol.details: Anticancer human tumor 439559-082-T-J2-PDC patient-derived colon adenocarcinoma cell line growth inhibition [GQUAD]
details: second compound 0.316 µM; first compound 10 µM; hits give low values
Excerpt: DNA G-quadruplex Stabilizer Agents in Combinations in Complex Spheroids A high-throughput screen of multi-cell type tumor spheroids was designed to identify active combinations of DNA G-quadruplex stabilizer agents and targeted small molecules. […] Compounds. […] If the clinical Cmax for an agent had not been determined, the highest concentration tested was 10 microM. […]
Report as a plain number; the unit % is understood.

molecule	viability, T/C / %
COc1cc(C2c3cc4c(cc3C(OC3OC5COC(C)OC5C(O)C3O)C3COC(=O)C23)OCO4)cc(OC)c1O (stereo not drawn) + CN(C)c1ccc(Nc2c3ccc(NC(=O)CCN4CCCC4)cc3nc3cc(NC(=O)CCN4CCCC4)ccc23)cc1	59.9
O=C(NO)c1cnc(N2CCN(S(=O)(=O)c3ccc4ccccc4c3)CC2)nc1 + Cc1cnc(CNC(=O)c2c(=O)c3ccc(N4CCCN(C)CC4)nc3n3c2sc2ccccc23)cn1	0.24
COc1cccc2c1C(=O)c1c(O)c3c(c(O)c1C2=O)CC(O)(C(=O)CO)CC3OC1CC(N)C(O)C(C)O1 (stereo not drawn) + CN(C)c1ccc(Nc2c3ccc(NC(=O)CCN4CCCC4)cc3nc3cc(NC(=O)CCN4CCCC4)ccc23)cc1	43.4

input: // fetch 439559-082-T-J2-PDC spheroids viability viability, T/C for O=c1[nH]cc(F)c(=O)[nH]1 + Cc1[nH]c2ccc(F)cc2c1-c1nc2c3cccnc3c3ncccc3c2[nH]1
output: 76.3

input: Queued: COc1cc(C2c3cc4c(cc3C(OC3OC5COC(C)OC5C(O)C3O)C3COC(=O)C23)OCO4)cc(OC)c1O (stereo not drawn) + Cc1[nH]c2ccc(F)cc2c1-c1nc2c3cccnc3c3ncccc3c2[nH]1
output: 65.3

input: Also COc1ncnc(C2CC2)c1-c1ncc2cnn(Cc3ccc(-c4nc(C(F)(F)F)cn4C(C)C)cc3)c2n1 + Cc1[nH]c2ccc(F)cc2c1-c1nc2c3cccnc3c3ncccc3c2[nH]1 , if possible.
output: 72.5

input: Do the same for CC(C)n1c(=O)n(C)c2cnc3cc(F)c(-c4ccc(OCCCN5CCCCC5)nc4)cc3c21 + Cc1cnc(CNC(=O)c2c(=O)c3ccc(N4CCCN(C)CC4)nc3n3c2sc2ccccc23)cn1 please
output: 53

input: Check CCCS(=O)(=O)Nc1ccc(F)c(C(=O)c2c[nH]c3ncc(-c4ccc(Cl)cc4)cc23)c1F + CN(C)c1ccc(Nc2c3ccc(NC(=O)CCN4CCCC4)cc3nc3cc(NC(=O)CCN4CCCC4)ccc23)cc1 too.
output: 48.1

----------
System: 439559-082-T-J2-PDC spheroids viability
protocol.details: Anticancer human tumor 439559-082-T-J2-PDC cell line growth inhibition [GQUAD];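 also: spheroids exposed to the agents for 7 days before readout; percent of luminescence signal in DMSO vehicle wells taken as 100% viability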
details: second compound 1 µM; first compound 0.316 µM; hits give low values
Description: DNA G-quadruplex Stabilizer Agents in Combinations in Complex Spheroids A high-throughput screen of multi-cell type tumor spheroids was designed to identify active combinations of DNA G-quadruplex stabilizer agents and targeted small molecules. […] Compounds. […] If the clinical Cmax for an agent had not been determined, the highest concentration tested was 10 microM. […]
Measured viability, T/C of individual entries
Give just the numeric value; % need not be written.

compound	viability, T/C, %
CC(C)(O)C1CCC(Nc2ccc3ncc(-c4cccc(C(F)(F)F)c4)n3n2)CC1 (configuration not stated) + Cc1[nH]c2ccc(F)cc2c1-c1nc2c3cccnc3c3ncccc3c2[nH]1	76.4
CCCS(=O)(=O)Nc1ccc(F)c(C(=O)c2c[nH]c3ncc(-c4ccc(Cl)cc4)cc23)c1F + CN(C)c1ccc(Nc2c3ccc(NC(=O)CCN4CCCC4)cc3nc3cc(NC(=O)CCN4CCCC4)ccc23)cc1	103
COc1ncnc(C2CC2)c1-c1ncc2cnn(Cc3ccc(-c4nc(C(F)(F)F)cn4C(C)C)cc3)c2n1 + Cc1[nH]c2ccc(F)cc2c1-c1nc2c3cccnc3c3ncccc3c2[nH]1	91.9
CC1COCCN1c1cc(C2(S(C)(=N)=O)CC2)nc(-c2ccnc3[nH]ccc23)n1 (configuration not stated) + CN(C)c1ccc(Nc2c3ccc(NC(=O)CCN4CCCC4)cc3nc3cc(NC(=O)CCN4CCCC4)ccc23)cc1	102
Cn1ncnc1[C@H]1c2n[nH]c(=O)c3cc(F)cc(c23)N[C@@H]1c1ccc(F)cc1 + Cc1[nH]c2ccc(F)cc2c1-c1nc2c3cccnc3c3ncccc3c2[nH]1	84

input: Need viability, T/C of COc1ccc([C@@H](O)c2cc(-c3ncnc4cc(N5CCOCC5)ccc34)c(F)cc2Cl)nn1 + Cc1[nH]c2ccc(F)cc2c1-c1nc2c3cccnc3c3ncccc3c2[nH]1 , thanks.
output: 90.5

input: Item: O=C(NO)c1cnc(N2CCN(S(=O)(=O)c3ccc4ccccc4c3)CC2)nc1 + Cc1[nH]c2ccc(F)cc2c1-c1nc2c3cccnc3c3ncccc3c2[nH]1
output: 77.1
